- target-entity: BRD4 Bromodomain 2 (BRD4 BD2) (Homo sapiens, UniProt O60885)
- Construct: 333-460 were cloned, expressed, and purified to homogeneity
- test-summary: AlphaScreen binding assay, BRD4 BD2
- cond: His-tagged BRD4 BD2 100 nM, biotinylated H4 (1-21) K5/8/12/16 tetra-acetylated peptide 100 nM, compounds listed under IC50 range headings
Entries and their measured IC50 follow.

What does the record list as IC50 for CC(=O)N1c2ccc(-c3cnn(C4CC4)c3)c(OCC3CCC3)c2CC[C@@H]1C [I-392] ? 50 to 500 nM

New cases:
Please look up its IC50: CC(=O)N1c2ccc(-c3cnn(C4CC4)c3)c(OCc3cncs3)c2CC[C@@H]1C [I-406] 50 to 500 nM

Reported IC50, compound CC(=O)N1c2ccc(-c3ccc(N4CCCS4(=O)=O)cc3)c(Oc3ncc(F)cn3)c2CC[C@@H]1C [I-553] : ____ < 50 nM

Tell me the measured IC50 of CC(=O)N1c2ccc(-c3cnn(CC(C)(C)O)c3)c(OCC(C)C)c2CC[C@@H]1C [I-421] , please. 50 to 500 nM

I have this compound here, CC(=O)N1c2cccc(Oc3ccccc3)c2CCC1C (racemic) [I-112] , and I need its recorded IC50. 50 to 500 nM

* * *

- target-entity: BRD4 Bromodomain 1 (BRD4 BD1) (Homo sapiens)
- Construct: 44-168 and BRD4 BD2
- test-summary: AlphaScreen binding assay, BRD4 BD1
- cond: His-tagged BRD4 BD1 50 nM, biotinylated H4 (1-21) K5/8/12/16 tetra-acetylated peptide 50 nM, compounds listed under IC50 range headings
pIC50: −log10 of the molar value.
Item-by-item account of pIC50

Reference set, count: 3
Tell me the measured pIC50 of CC(=O)N1c2ccc(-c3cnn(C4CC4)c3)c(OCCN3CCCC3=O)c2CC[C@@H]1C [I-42] , please. 6.00 to 7.00

What value of measured pIC50 is listed for C#Cc1ccc2c(c1Oc1ccccc1)CC[C@H](C)N2C(=O)OC [I-346] ? ≤ 5.00

So what does the record say about pIC50 for C[C@H]1CCc2c(ccc(-c3cnn(C4CCCS(=O)(=O)C4)c3)c2Oc2ccccc2)N1C(=O)C1CC1 (stereo partly shown) [I-294] ? 6.00 to 7.00

Okay, now this molecule:
Record request: pIC50 value, item CC(=O)N1c2ccc(-c3cnn(C4CCNCC4)c3)c(Oc3cc(C4CC4)ncn3)c2CC[C@@H]1C [I-517] 5.00 to 6.00

* * *

- target-entity: BRD4 Bromodomain 2 (BRD4 BD2) (Homo sapiens, UniProt O60885)
- Construct: 333-460 were cloned, expressed, and purified to homogeneity
- test-summary: AlphaScreen binding assay, BRD4 BD2
- cond: His-tagged BRD4 BD2 100 nM, biotinylated H4 (1-21) K5/8/12/16 tetra-acetylated peptide 100 nM, compounds listed under IC50 range headings
- Protocol: The binding of Example compounds to BRD4 Bromodomain 1 and BRD4 Bromodomain 2 was assessed using 384-well AlphaScreen assay technology. His-epitope tagged BRD4 BD144-168 and BRD4 BD2333-460 were cloned, expressed, and purified to homogeneity. BRD4 BD1 and BRD4 BD2 binding and inhibition was assessed by monitoring the engagement of biotinylated Histone H4 (1-21) K5/8/12/16 tetra-acetylated peptide with the targets using the AlphaScreen technology (PerkinElmer). […]
# key: entry, value: IC50

Give the measured IC50 of CC(=O)N1c2ccc(-c3cccc(NS(C)(=O)=O)c3)c(OCC(=O)N(C)C)c2CC[C@@H]1C . 50 to 500 nM

Others:
Name the reported IC50 value associated with the compound CCCOc1c(-c2ccc(S(=O)(=O)CC)cc2)ccc2c1CC[C@H](C)N2C(C)=O 50 to 500 nM

Entry CC(=O)N1c2cccc(OCC(=O)N(C)C)c2CC[C@@H]1C has what IC50? ≥ 500 nM

Entry COC(=O)N1c2ccc(-c3cnn(C4CC4)c3)c(Oc3ncc(C4CC4)cn3)c2CC[C@@H]1C : reported IC50 = ? 50 to 500 nM
